Measured pIC50, listed per entry for reference.
# Assayed Target: Indoleamine 2,3-dioxygenase 1 (Homo sapiens, UniProt P14902)
# Sequence (P14902 whole entry): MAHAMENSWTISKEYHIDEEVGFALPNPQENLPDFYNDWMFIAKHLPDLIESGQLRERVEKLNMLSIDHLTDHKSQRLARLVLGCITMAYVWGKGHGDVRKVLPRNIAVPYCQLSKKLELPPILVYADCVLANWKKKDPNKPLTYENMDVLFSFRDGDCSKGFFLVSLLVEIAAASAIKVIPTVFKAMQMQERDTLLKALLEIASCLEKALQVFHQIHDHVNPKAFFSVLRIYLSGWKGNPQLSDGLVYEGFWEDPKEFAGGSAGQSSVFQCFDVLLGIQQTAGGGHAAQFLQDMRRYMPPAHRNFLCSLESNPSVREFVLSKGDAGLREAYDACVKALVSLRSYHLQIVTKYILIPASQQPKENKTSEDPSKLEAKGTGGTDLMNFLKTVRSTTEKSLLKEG
# Test: Inhibition of human recombinant N-terminal His-tagged IDO1 (Ala2 to Gly403) overexpressed in Escherichia coli BL21 at pH 6.5 after 60 mins by HPLC analysis
pIC50: −log10 of the molar value.
Measurement Kind: pIC50

{"Smiles Text": "Cc1cccc(NC(=O)C(F)(F)F)c1-c1c[nH]nn1", "Measurement Kind": "pIC50", "Result Value": 2.52}
{"Smiles Text": "Fc1ccccc1-c1c[nH]nn1", "Measurement Kind": "pIC50", "Result Value": 4.10}
{"Smiles Text": "Clc1cccc(-c2c[nH]nn2)c1Cl", "Measurement Kind": "pIC50", "Result Value": 4.64}
{"Smiles Text": "c1cc(-c2cnn[nH]2)ccn1", "Measurement Kind": "pIC50", "Result Value": 4.07}
{"Smiles Text": "c1cncc(-c2c[nH]nn2)c1", "Measurement Kind": "pIC50", "Result Value": 3.00}
{"Smiles Text": "FC(F)(F)c1ccccc1-c1c[nH]nn1", "Measurement Kind": "pIC50", "Result Value": 3.19}

---

# Test: Dissociation constant, pKa of the compound at pH 11 to 12 by spectrophotometric analysis
# Assay type: physicochemical
pKa values, listed per item

{"Smiles Text": "c1c[nH]nn1", "pKa": 1.17}
{"Smiles Text": "c1ccc(-c2cnn[nH]2)cc1", "pKa": 0.4}
{"Smiles Text": "c1ccc(-c2nc[nH]n2)cc1", "pKa": 2.05}
{"Smiles Text": "c1nc[nH]n1", "pKa": 2.19}
{"Smiles Text": "c1ccc(-c2c[nH]cn2)cc1", "pKa": 6.1}

---

# Assayed Target: Indoleamine 2,3-dioxygenase 1 (Mus musculus)
# Sequence (P28776 whole entry): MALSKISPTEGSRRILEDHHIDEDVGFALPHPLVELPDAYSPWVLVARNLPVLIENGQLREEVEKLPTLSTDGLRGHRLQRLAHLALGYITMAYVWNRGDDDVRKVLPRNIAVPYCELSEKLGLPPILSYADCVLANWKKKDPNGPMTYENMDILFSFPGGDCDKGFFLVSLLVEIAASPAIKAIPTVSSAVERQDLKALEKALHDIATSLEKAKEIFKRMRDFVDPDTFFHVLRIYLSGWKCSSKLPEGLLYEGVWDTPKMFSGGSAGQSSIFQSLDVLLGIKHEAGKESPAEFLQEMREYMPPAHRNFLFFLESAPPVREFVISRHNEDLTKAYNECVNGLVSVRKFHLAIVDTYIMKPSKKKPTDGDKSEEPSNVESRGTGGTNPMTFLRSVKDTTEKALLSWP
# Test: Inhibition of mouse IDO1 in P815 clone 6 cells by HPLC analysis
pIC50: −log10 of the molar value.

{"Smiles Text": "Clc1ccccc1-c1c[nH]nn1", "Bound Type": "=", "pIC50": 5.82}
{"Smiles Text": "FC(F)(F)c1cccc(-c2c[nH]nn2)c1", "Bound Type": "=", "pIC50": 7.15}
{"Smiles Text": "N#Cc1cccc(-c2c[nH]nn2)c1", "Bound Type": "=", "pIC50": 7.54}
{"Smiles Text": "Cc1ccccc1-c1c[nH]nn1", "Bound Type": "=", "pIC50": 5.77}
{"Smiles Text": "Clc1cc(-c2c[nH]nn2)ccn1", "Bound Type": "=", "pIC50": 7.22}
{"Smiles Text": "Fc1cccc(-c2c[nH]nn2)c1", "Bound Type": "=", "pIC50": 5.96}
{"Smiles Text": "Fc1ccccc1-c1c[nH]nn1", "Bound Type": "=", "pIC50": 6.20}
{"Smiles Text": "Oc1ccc(Cl)cc1-c1c[nH]nn1", "Bound Type": "=", "pIC50": 8.70}
{"Smiles Text": "Brc1cccc(-c2c[nH]nn2)c1", "Bound Type": "=", "pIC50": 7.64}
{"Smiles Text": "Fc1ccc(-c2c[nH]nn2)cc1", "Bound Type": "=", "pIC50": 5.68}
{"Smiles Text": "Nc1cccc(-c2c[nH]nn2)c1", "Bound Type": "=", "pIC50": 5.40}
{"Smiles Text": "FC(F)(F)c1ccccc1-c1c[nH]nn1", "Bound Type": "=", "pIC50": 4.70}
{"Smiles Text": "Fc1ccc2c(/C=C/c3nnn[nH]3)c[nH]c2c1", "Bound Type": "<", "pIC50": 4.00}
{"Smiles Text": "Oc1cccc(-c2c[nH]nn2)c1", "Bound Type": "=", "pIC50": 5.89}
{"Smiles Text": "Nc1ccccc1-c1c[nH]nn1", "Bound Type": "=", "pIC50": 5.77}
{"Smiles Text": "c1ccc(-c2cnn[nH]2)cc1", "Bound Type": "=", "pIC50": 6.74}
{"Smiles Text": "Clc1cccc(-c2c[nH]nn2)c1Cl", "Bound Type": "=", "pIC50": 5.77}
{"Smiles Text": "Oc1ccccc1-c1c[nH]nn1", "Bound Type": "=", "pIC50": 7.66}
{"Smiles Text": "CCc1cccc(-c2c[nH]nn2)c1", "Bound Type": "=", "pIC50": 7.52}
{"Smiles Text": "O=[N+]([O-])c1cccc(-c2c[nH]nn2)c1", "Bound Type": "=", "pIC50": 6.96}
{"Smiles Text": "FC(F)(F)c1cc(-c2c[nH]nn2)ccn1", "Bound Type": "=", "pIC50": 6.47}
{"Smiles Text": "Brc1cc(-c2c[nH]nn2)ccn1", "Bound Type": "=", "pIC50": 7.30}
{"Smiles Text": "Brc1ccccc1-c1c[nH]nn1", "Bound Type": "=", "pIC50": 7.47}
{"Smiles Text": "COc1ccccc1-c1c[nH]nn1", "Bound Type": "=", "pIC50": 4.70}
{"Smiles Text": "Clc1ccc(Cl)c(-c2c[nH]nn2)c1", "Bound Type": "=", "pIC50": 6.82}
{"Smiles Text": "Clc1cccc(-c2c[nH]nn2)c1", "Bound Type": "=", "pIC50": 7.70}
{"Smiles Text": "CCc1ccccc1-c1c[nH]nn1", "Bound Type": "=", "pIC50": 4.89}
{"Smiles Text": "Cc1ccc(Cl)cc1-c1c[nH]nn1", "Bound Type": "=", "pIC50": 6.92}
{"Smiles Text": "Fc1cc(-c2c[nH]nn2)ccn1", "Bound Type": "=", "pIC50": 6.92}
{"Smiles Text": "Cc1cccc(-c2c[nH]nn2)c1", "Bound Type": "=", "pIC50": 6.92}

Entry source: ChEMBL document CHEMBL2146377
